# Twenty-four-hour urine volume per entry
Tested on: male Fischer 344 rats
Assay: Urine volume after a single i.p. dose
Assay type: in vivo
Conditions: dose 0.6 (head mg/kg; text mmol/kg), i.p. in corn oil, mean ± SE, N = 3–4
Marks after values point to notes of the source that are not given here.

Worked set:
* Cc1cc(C)cc(N2C(=O)CSC2=O)c1 | 8.9 ± 1.8*,^a ml
* O=C1SCCN1c1cc(Cl)cc(Cl)c1 | 5.0 ± 0.7^d ml
* CC1SC(=O)N(c2cc(Cl)cc(Cl)c2)C1=O (centres unmarked) | 11.6 ± 1.0*,^a ml
* O=C1CSC(=O)N1c1ccc(Cl)cc1 | 16.6 ± 0.8*,^c ml

Here is another compound to look at.
(Q) Observed Twenty-four-hour urine volume on male Fischer 344 rats for O=C1CSC(=O)N1c1cc(C(F)(F)F)cc(C(F)(F)F)c1 , please.
(A) 20.0 ± 3.1*,^g,^h ml
